- measurement parameters: human gut metagenome, 24 h, 2 µM; further: call rule not given here
outcome measure: Bacterial Biotransformation

compound	outcome measure	measured
CCN(C(C)=O)c1cccc(-c2ccnc3c(C#N)cnn23)c1	Bacterial Biotransformation	Compound metabolized
CN(C/C=C/C#CC(C)(C)C)Cc1cccc2ccccc12	Bacterial Biotransformation	Compound NOT metabolized
O=C([O-])C[C@H](O)C[C@H](O)/C=C/c1c(C2CC2)nc2ccccc2c1-c1ccc(F)cc1.O=C([O-])C[C@H](O)C[C@H](O)/C=C/c1c(C2CC2)nc2ccccc2c1-c1ccc(F)cc1.[Ca+2]	Bacterial Biotransformation	Compound metabolized
Cc1cc2c(s1)Nc1ccccc1N=C2N1CCN(C)CC1	Bacterial Biotransformation	Compound metabolized
O=C(O)CCC(=O)O.O=C(O[C@H]1CN2CCC1CC2)N1CCc2ccccc2[C@@H]1c1ccccc1 [SOLIFENACIN SUCCINATE]	Bacterial Biotransformation	Compound NOT metabolized

Value of measured Bacterial Biotransformation for the entry "CN1CCC(OC(c2ccccc2)c2ccccc2)CC1" : Compound metabolized

Value of measured Bacterial Biotransformation for the entry CCN(CC)CCNC(=O)c1cc(S(C)(=O)=O)ccc1OC [TIAPRIDE] : Compound metabolized

Value of measured Bacterial Biotransformation for the entry "CNCC[C@H](Oc1cccc2ccccc12)c1cccs1" : Compound NOT metabolized
